# key: entry, value: IC50
biological target: NDM-1 (Klebsiella pneumoniae); assay: biochemical; format: biochemical; conditions: fluorescence assay with CCF2-FA substrate; read-out: NDM-1 IC50
Sequence (C7C422 whole entry, looked up, species assumed): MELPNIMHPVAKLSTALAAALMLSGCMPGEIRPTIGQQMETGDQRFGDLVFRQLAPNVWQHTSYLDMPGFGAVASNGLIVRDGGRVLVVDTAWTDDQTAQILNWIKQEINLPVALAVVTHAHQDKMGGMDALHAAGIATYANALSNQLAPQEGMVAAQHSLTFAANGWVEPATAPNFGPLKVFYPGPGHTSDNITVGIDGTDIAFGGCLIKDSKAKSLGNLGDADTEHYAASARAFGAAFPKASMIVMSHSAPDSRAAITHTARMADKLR
Could you give me the number in nM? Just the number is fine.

Worked examples follow.
{"Compound": "COc1ccc(-c2cccc(S(N)(=O)=O)c2-c2nn[nH]n2)cn1 [Example 78]", "Units Of Measure": "nM", "Test Result": 19.3}
{"Compound": "NS(=O)(=O)c1cccc(C#Cc2cccnc2)c1-c1nn[nH]n1 [Example 147]", "Units Of Measure": "nM", "Test Result": 16.4}
{"Compound": "CS(=O)(=O)Nc1ccc(-c2cccc(S(N)(=O)=O)c2-c2nn[nH]n2)cc1 [Example 82]", "Units Of Measure": "nM", "Test Result": 1.43}
{"Compound": "NS(=O)(=O)c1cccc(-c2cc(F)cc(F)c2)c1-c1nnn[nH]1 [Example 129]", "Units Of Measure": "nM", "Test Result": 3.71}
{"Compound": "CC(=O)Nc1ccc(-c2ccnc(S(N)(=O)=O)c2-c2nn[nH]n2)cc1 [Example 214]", "Units Of Measure": "nM", "Test Result": 13.2}

Here's the next entry for you.
Ask: Notebook: pull reported IC50 for NDM-1 (Klebsiella pneumoniae), entry NS(=O)(=O)c1cccc(-c2ccccc2)c1-c1nn[nH]n1 [Example 14]
Result: 5.19

---

molecular target: VIM-1 (Pseudomonas aeruginosa (strain ATCC 15692 / DSM 22644 / CIP 104116 / JCM 14847 / LMG 12228 / 1C / PRS 101 / PAO1), UniProt A0A0F7KYQ8); assay: Enzyme activity: determination of IC50, fluorescence assay with CCF2-FA substrate (VIM-1); type: biochemical; settings: VIM-1 enzyme, CCF2-FA fluorescence assay; read-out: VIM-1 IC50
Parameter Measured: IC50 (nM)
Could you give me the number in nM? Just the number is fine.

Worked examples follow.
{"Compound": "Cc1ccccc1-c1cccc(S(N)(=O)=O)c1-c1nn[nH]n1 [Example 325]", "IC50 (nM)": 13.1}
{"Compound": "CC(C)c1ccc(C(F)(F)F)c(S(N)(=O)=O)c1-c1nnn[nH]1 [Example 488]", "IC50 (nM)": 3.44}
{"Compound": "NS(=O)(=O)c1cccc(-c2cccc3scnc23)c1-c1nnn[nH]1 [Example 422]", "IC50 (nM)": 22.6}

Ask: Can you share its IC50? I mean this compound: Nc1nc2ccc(-c3cccc(S(N)(=O)=O)c3-c3nnn[nH]3)cc2s1 [Example 417]
Result: 8.53

Ask: Can you share its IC50? I mean this compound: NS(=O)(=O)c1cccc(-c2ccc(CNC[C@@]3(O)CCOC3)cc2)c1-c1nnn[nH]1 [Example 373]
Result: 241

Ask: Can you share its IC50? I mean this compound: NS(=O)(=O)c1cccc(-c2ccc(CNCCn3ccnn3)cc2)c1-c1nnn[nH]1 [Example 350]
Result: 246

---

molecular target: VIM-1 (Pseudomonas aeruginosa (strain ATCC 15692 / DSM 22644 / CIP 104116 / JCM 14847 / LMG 12228 / 1C / PRS 101 / PAO1)); assay: Enzyme activity: determination of IC50, fluorescence assay with CCF2-FA substrate (VIM-1); assay type: biochemical; details: fluorescence assay with CCF2-FA substrate; read-out: VIM-1 IC50
pIC50: −log10 of the molar value.
Short version: pIC50 at least 8 is 1.0, less is 0.0.

Worked cases, answers included:
{"Molecule": "NS(=O)(=O)c1cccc(-c2cnc(NC3CC3)nc2)c1-c1nnn[nH]1 [Example 123]", "Group Label": 0.0}
{"Molecule": "Nc1nccc2cc(-c3ccc(C(F)(F)F)c(S(N)(=O)=O)c3-c3nnn[nH]3)ccc12 [Example 751]", "Group Label": 1.0}
{"Molecule": "NC(=O)c1cccc(-c2cccc(S(N)(=O)=O)c2-c2nn[nH]n2)c1 [Example 81]", "Group Label": 0.0}
{"Molecule": "Nc1cc(-c2cccc(S(N)(=O)=O)c2-c2nnn[nH]2)cc(N)n1 [Example 133]", "Group Label": 0.0}
{"Molecule": "NS(=O)(=O)c1c(C(F)(F)F)ccc(-c2ccc(C3CN(C4CCNCC4)C3)cc2)c1-c1nnn[nH]1 [Example 802]", "Group Label": 0.0}
{"Molecule": "NS(=O)(=O)c1nccc(N2CCC(N3CCCC3)CC2)c1-c1nnn[nH]1 [Example 222]", "Group Label": 0.0}
{"Molecule": "NC1(CN2CC(c3ccc(-c4ccc(C(F)(F)F)c(S(N)(=O)=O)c4-c4nnn[nH]4)cc3)C2)CC1 [Example 806]", "Group Label": 1.0}
{"Molecule": "NCCC1CCN(c2ccc(C(F)(F)F)c(S(N)(=O)=O)c2-c2nnn[nH]2)CC1 [Example 755]", "Group Label": 1.0}
{"Molecule": "NS(=O)(=O)c1c(C(F)(F)F)ccc([C@H]2CC[C@H](N)CC2)c1-c1nnn[nH]1 [Example 820]", "Group Label": 1.0}
{"Molecule": "CC1(c2ccc(-c3cccc(S(N)(=O)=O)c3-c3nn[nH]n3)cc2)SC(=O)NC1=O (stereo not shown) [Example 75]", "Group Label": 0.0}

Ask: Quick check: does NS(=O)(=O)c1c(C(F)(F)F)ccc(N2CCC3(CCNC3)CC2)c1-c1nnn[nH]1 [Example 775] have pIC50 greater than or equal to 8?
Result: 1.0

Ask: Quick check: does Cn1nnc2ccc(-c3cccc(S(N)(=O)=O)c3-c3nn[nH]n3)cc21 [Example 67] have pIC50 greater than or equal to 8?
Result: 0.0

Ask: Quick check: does NS(=O)(=O)c1cccc(C2=CCCOC2)c1-c1nn[nH]n1 [Example 63] have pIC50 greater than or equal to 8?
Result: 0.0

Ask: Quick check: does NS(=O)(=O)c1nccc(-c2ccc3c(c2)CNC3=O)c1-c1nnn[nH]1 [Example 196] have pIC50 greater than or equal to 8?
Result: 0.0

Ask: Quick check: does Cc1cccc(S(N)(=O)=O)c1-c1nnn[nH]1 [Example 150] have pIC50 greater than or equal to 8?
Result: 0.0

Ask: Quick check: does Cc1nnc2ccc(-c3cccc(S(N)(=O)=O)c3-c3nnn[nH]3)cn12 [Example 113] have pIC50 greater than or equal to 8?
Result: 0.0
